- system: rat FAAH (Rattus norvegicus, UniProt P97612)
- Construct: made in house; host or cells: E. coli
- Sequence (P97612 whole entry): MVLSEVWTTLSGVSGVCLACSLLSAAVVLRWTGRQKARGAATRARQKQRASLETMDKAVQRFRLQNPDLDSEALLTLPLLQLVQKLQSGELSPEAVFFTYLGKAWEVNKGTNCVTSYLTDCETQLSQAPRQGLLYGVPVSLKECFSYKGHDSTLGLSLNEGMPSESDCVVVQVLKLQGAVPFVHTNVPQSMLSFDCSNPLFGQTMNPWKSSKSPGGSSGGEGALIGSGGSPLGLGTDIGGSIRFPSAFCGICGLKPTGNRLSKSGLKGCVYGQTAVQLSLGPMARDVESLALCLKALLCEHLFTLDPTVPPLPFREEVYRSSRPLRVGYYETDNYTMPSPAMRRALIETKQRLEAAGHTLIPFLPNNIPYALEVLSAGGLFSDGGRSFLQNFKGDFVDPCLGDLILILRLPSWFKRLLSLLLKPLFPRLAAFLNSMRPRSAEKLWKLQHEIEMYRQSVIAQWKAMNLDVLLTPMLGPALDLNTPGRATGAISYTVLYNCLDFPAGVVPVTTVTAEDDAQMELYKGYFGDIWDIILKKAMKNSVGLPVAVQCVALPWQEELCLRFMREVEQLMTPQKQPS
- methodDescription: FAAH assay, rat FAAH enzyme inactivation (kinact/Ki)
- Type: biochemical
- conditionInfo: in vitro, oleamide 50 μM, 30° C., pH 7.4
Measured rFAAH kinact/Ki accompanies every entry in the list below.
API: value field is a number in M⁻¹ s⁻¹; no unit string.

Reference set (7 entries):
Cc1noc(NC(=O)N2CCC3(CC2)CC(c2cccc(Cl)c2)CO3)c1C (single isomer, unassigned) [Example 35]; 1560
Cc1noc(NC(=O)N2CCC3(CC2)CC(c2noc(-c4ccc(C(F)(F)F)cc4)n2)CO3)c1C (single isomer, unassigned); 1150
Cc1noc(NC(=O)N2CCC3(CC2)CC(c2cc(F)cc(Cl)c2)CO3)c1C (single isomer, unassigned) [Example 40]; 3740
Cc1noc(NC(=O)N2CCC3(CC2)CC(c2ccc(OCc4ccccc4Cl)c(Cl)c2)CO3)c1C (single isomer, unassigned) [Example 43]; 5870
Cn1nnnc1NC(=O)N1CCC2(CC1)CC(c1cccc(C(F)(F)F)c1)CO2 (single isomer, unassigned); 2110
Cn1nnnc1NC(=O)N1CCC2(CC1)CC(c1cccc(Cl)c1)CO2 (single isomer, unassigned) [Example 80]; 5520
Cc1noc(NC(=O)N2CCC3(CC2)CC(c2ccc(OCc4ccccc4Cl)c(Cl)c2)CO3)c1C (single isomer, unassigned) [Example 44]; 1950

Now look at this one.
Query block: Item under review: Cc1noc(NC(=O)N2CCC3(CC2)CC(c2ccc(OCc4cccc(Cl)c4)c(Cl)c2)CO3)c1C (single isomer, unassigned) . Reported rFAAH kinact/Ki?
Result block: 6920

###

- system: human FAAH (Homo sapiens)
- Construct: made in house; host or cells: E. coli
- Sequence (O00519 whole entry): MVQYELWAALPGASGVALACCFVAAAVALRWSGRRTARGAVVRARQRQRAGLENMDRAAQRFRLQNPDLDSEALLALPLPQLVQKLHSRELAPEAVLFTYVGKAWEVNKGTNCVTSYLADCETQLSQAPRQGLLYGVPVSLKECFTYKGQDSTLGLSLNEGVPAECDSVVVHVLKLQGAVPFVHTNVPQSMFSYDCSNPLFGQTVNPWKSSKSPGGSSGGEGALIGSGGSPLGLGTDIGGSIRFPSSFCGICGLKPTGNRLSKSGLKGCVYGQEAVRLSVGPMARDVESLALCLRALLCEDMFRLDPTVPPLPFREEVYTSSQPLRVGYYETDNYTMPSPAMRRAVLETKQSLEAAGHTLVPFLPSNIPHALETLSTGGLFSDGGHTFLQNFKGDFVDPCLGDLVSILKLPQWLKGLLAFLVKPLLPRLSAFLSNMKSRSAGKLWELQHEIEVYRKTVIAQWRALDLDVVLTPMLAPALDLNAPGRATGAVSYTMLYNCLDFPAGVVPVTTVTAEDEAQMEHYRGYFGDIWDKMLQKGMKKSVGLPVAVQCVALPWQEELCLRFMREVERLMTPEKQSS
- methodDescription: FAAH assay, human FAAH enzyme inactivation (kinact/Ki)
- Type: biochemical
- conditionInfo: in vitro, oleamide 50 μM, 30° C., pH 7.4
valueType: hFAAH kinact/Ki (M⁻¹ s⁻¹)
API: value field is a number in M⁻¹ s⁻¹; no unit string.

Reference set (2 entries):
Cc1noc(NC(=O)N2CCC3(CC2)CC(c2cccc(Cl)c2)CO3)c1C (single isomer, unassigned); 2590
Cc1noc(NC(=O)N2CCC3(CC2)CC(c2ccc(Cl)c(Cl)c2)CO3)c1C (single isomer, unassigned) [Example 38]; 2050

Query block: Item under review: Cc1noc(NC(=O)N2CCC3(CC2)CC(c2ccc(OCc4cccc(Cl)c4)c(Cl)c2)CO3)c1C (single isomer, unassigned) . Reported hFAAH kinact/Ki?
Result block: 4490

###

Measured log10 kinact/KI accompanies every entry in the list below.
- system: rat FAAH (Rattus norvegicus, UniProt P97612)
- Construct: made in house; host or cells: E. coli
- methodDescription: FAAH assay, rat FAAH enzyme inactivation (kinact/Ki)
- Assay type: biochemical
- conditionInfo: pH 7.4, in vitro, oleamide 50 μM, 30° C., read-out: rFAAH kinact/Ki
A difference of one corresponds to tenfold kinact/KI; all values are log10 with kinact/KI in M⁻¹ s⁻¹.

Query block: Item under review: Cc1noc(NC(=O)N2CCC3(CC2)CC(c2ccc(OCc4ccc(F)cc4)cc2)CO3)c1C (racemic) . Reported log10 kinact/KI?
Result block: 3.83

Query block: Again, but for Cc1noc(NC(=O)N2CCC3(CC2)CC(c2cccc(C(F)(F)F)c2)CO3)c1C (racemic) [Example 65]
Result block: 3.42

Query block: Again, but for CCc1noc(NC(=O)N2CCC3(CC2)CC(c2ccc(Cl)c(Cl)c2)CO3)c1C (single isomer, unassigned)
Result block: 3.48

Query block: Again, but for `Cc1noc(NC(=O)N2CCC3(CC2)C[C@@H](c2cccc(-c4ccc(OC(F)(F)F)cc4)c2)CO3)c1C`
Result block: 3.33

Query block: Again, but for `Cn1nnnc1NC(=O)N1CCC2(CC1)C[C@H](c1cccc(-c3ccc(OC(F)(F)F)cc3)c1)CO2`
Result block: 3.26

Query block: Again, but for Cc1noc(NC(=O)N2CCC3(CC2)CC(c2ccc(OCc4ccc(F)cc4)c(Cl)c2)CO3)c1C (racemic)
Result block: 3.85

Query block: Again, but for Cc1noc(NC(=O)N2CCC3(CC2)CC(F)(c2cc(F)cc(Cl)c2)CO3)c1C (racemic)
Result block: 3.05

Query block: Again, but for O=C(Nc1noc2ccccc12)N1CCC2(CC1)CC(c1cccc(Oc3ccc(Cl)cn3)c1)CO2 (racemic)
Result block: 3.92

Query block: Again, but for Cc1noc(NC(=O)N2CCC3(CC2)CC(c2ccc(Cl)c(F)c2)CO3)c1C (racemic)
Result block: 3.40

Values were extracted from patent US20110230493A1.
